Provenance of the data: patent US20130109682A1

# testSystem: GSK3β (Homo sapiens, UniProt P49841)
# Sequence (P49841 whole entry, species assumed): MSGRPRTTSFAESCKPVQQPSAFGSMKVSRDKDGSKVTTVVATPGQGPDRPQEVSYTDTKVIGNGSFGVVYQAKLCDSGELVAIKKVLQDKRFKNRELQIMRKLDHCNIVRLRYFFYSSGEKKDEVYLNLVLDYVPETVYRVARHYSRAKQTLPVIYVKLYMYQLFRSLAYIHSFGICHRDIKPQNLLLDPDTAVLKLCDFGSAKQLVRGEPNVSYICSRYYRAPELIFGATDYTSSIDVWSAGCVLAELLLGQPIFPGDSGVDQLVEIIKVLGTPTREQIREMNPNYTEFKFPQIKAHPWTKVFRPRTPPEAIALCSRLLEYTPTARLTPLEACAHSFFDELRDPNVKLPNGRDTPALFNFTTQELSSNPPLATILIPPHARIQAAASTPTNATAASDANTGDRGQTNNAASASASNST
# testSummary: GSK3β ATP depletion assay
# Assay type: biochemical
# runParameters: ATP depletion assay; read-out: GSK3b IC50
pIC50: −log10 of the molar value.
Rule: pIC50 of 6 or more gives 1; anything lower gives 0.

compound: CC(C)[C@H]1O[C@@H](c2ccncc2NC(=O)c2ccc(F)c(-c3ccccc3)n2)C[C@@H](N)[C@@H]1O [Example 309]
testSystem: GSK3β (Homo sapiens, UniProt P49841)
labelClass: 0
//
compound: CC1(C)C[C@H](N)C[C@@H](c2ccncc2NC(=O)c2ccc(F)c(-c3c(F)cccc3F)n2)O1 [Example 299]
testSystem: GSK3β (Homo sapiens, UniProt P49841)
labelClass: 1
//
compound: C[C@]1(O)[C@H](N)C[C@H](c2ccncc2NC(=O)c2nc(-c3c(F)cccc3F)ncc2N)O[C@@H]1C1CC1 [Example 262]
testSystem: GSK3β (Homo sapiens, UniProt P49841)
labelClass: 0

Data request: Determine whether this compound has pIC50 no lower than 6: N[C@H]1C[C@@H](c2ccncc2NC(=O)c2csc(-c3c(F)cccc3F)n2)O[C@H]2CCC[C@H]21 [Example 230]
Data returned: 0

Data request: Record: C[C@@]1(O)[C@H](N)C[C@@H](c2ccncc2NC(=O)c2nc(-c3ccccc3)cnc2N)OC12CC2 [Example 352]
Data returned: 1

Data request: Record: C[C@@]1(O)[C@@H](O)C[C@@H](c2ccncc2NC(=O)c2ccc(F)c(-c3c(F)cccc3F)n2)O[C@H]1C1CC1 [Example 248]
Data returned: 0

====

# testSystem: PKCα (Homo sapiens)
# testSummary: PKCα kinase Caliper assay
# Format: biochemical
# runParameters: read-out: PKC IC50
pIC50: −log10 of the molar value.
Rule: pIC50 of 6 or more gives fulfilled; anything lower gives not fulfilled.

structureNotation: C[C@@H]1O[C@H](c2ccncc2NC(=O)c2nc(-c3ccccc3)cnc2N)[C@@H](F)[C@H](O)[C@@]1(C)O
labelClass: fulfilled
--
structureNotation: C[C@H]1O[C@@H](c2ccncc2NC(=O)c2nc(-c3ccccc3)ncc2N)C[C@@H](O)[C@]1(C)O
labelClass: not fulfilled
--
structureNotation: Nc1ncc(-c2ccccc2)nc1C(=O)Nc1cnccc1[C@H]1C[C@@H](O)[C@H](O)[C@@H](CCl)O1
labelClass: fulfilled
--
structureNotation: C[C@H]1O[C@@H](c2ccncc2NC(=O)c2nc(-c3ccccc3)cnc2N)C[C@@H](O)[C@]1(C)O
labelClass: fulfilled

Next, consider the following compound.
Data request: Determine whether this compound has pIC50 no lower than 6: Nc1ncc(-c2ccccc2)nc1C(=O)Nc1cnccc1[C@@H]1C[C@H](O)[C@]2(O)CCCC[C@@H]2O1
Data returned: not fulfilled

====

# testSystem: GSK3β (Homo sapiens, UniProt P49841)
# testSummary: GSK3β ATP depletion assay
# Assay type: biochemical
# runParameters: read-out: GSK3b IC50
measurementType: log10 IC50 (log10 of the value in nM)
Friendly reminder: values = log10 of IC50, unit nM.

The following molecules have reported results that may help.
molecule: C[C@H]1OC(c2ccncc2NC(=O)c2nc(-c3c(F)cccc3F)ncc2N)=C[C@@H](O)[C@]1(C)O
log10 IC50: 2.86
//
molecule: Nc1cc(F)c(-c2c(F)cccc2F)nc1C(=O)Nc1cnccc1[C@H]1C[C@@H](O)[C@H](O)[C@@H](CCl)O1
log10 IC50: 1.94
//
molecule: CC[C@H]1O[C@@H](c2ccncc2NC(=O)c2nc(-c3c(F)cccc3F)ncc2N)C[C@@H](O)[C@@H]1O
log10 IC50: 2.28
//
molecule: C[C@@H]1O[C@H](c2ccncc2NC(=O)c2ccc(F)c(-c3c(F)cccc3F)n2)C[C@H](N)[C@H]1O
log10 IC50: 2.35
//
molecule: C[C@H]1O[C@@H](c2ccncc2NC(=O)c2ccc(F)c(-c3c(F)cccc3F)n2)C[C@@H](N)[C@@H]1O
log10 IC50: 3.49
//
molecule: C=C1[C@@H](O)C[C@@H](c2ccncc2NC(=O)c2nc(-c3c(F)cccc3F)ncc2N)OC12CC2
log10 IC50: 2.86

Data request: Recall the recorded log10 IC50 for O=C(Nc1cnccc1[C@H]1C[C@@H](O)[C@@]2(O)CCCC[C@H]2O1)c1c[nH]cc(-c2ccccc2)c1=O with GSK3β (Homo sapiens, UniProt P49841) and state it.
Data returned: 3.63

Data request: Record: C[C@H]1O[C@@H](c2ccncc2NC(=O)c2ccc(F)c(-c3c(F)cccc3F)n2)[C@H](O)[C@@H](O)[C@]1(C)O (stereo in doubt)
Data returned: 2.93

Data request: Record: O=C(Nc1cnccc1[C@H]1C[C@@H](O)[C@H](O)[C@@H](CCl)O1)c1ccnc(-c2c(F)cccc2F)n1
Data returned: 1.15

Data request: Record: C[C@H]1O[C@@H](c2ccncc2NC(=O)c2nc(-c3ccccc3)ncc2N)C[C@@H](O)[C@]1(C)O
Data returned: 2.66

Data request: Record: CC[C@]1(O)[C@H](O)C[C@H](c2ccncc2NC(=O)c2ccc(F)c(-c3c(F)cccc3F)n2)O[C@@H]1C (stereo in doubt)
Data returned: 3.69

Data request: Record: N#C[C@H]1O[C@@H](c2ccncc2NC(=O)c2nc(-c3c(F)cccc3F)c(F)cc2N)C[C@@H](O)[C@@H]1O
Data returned: 2.34

====

# testSystem: PIM2 (Homo sapiens)
# Sequence (Q9P1W9 whole entry): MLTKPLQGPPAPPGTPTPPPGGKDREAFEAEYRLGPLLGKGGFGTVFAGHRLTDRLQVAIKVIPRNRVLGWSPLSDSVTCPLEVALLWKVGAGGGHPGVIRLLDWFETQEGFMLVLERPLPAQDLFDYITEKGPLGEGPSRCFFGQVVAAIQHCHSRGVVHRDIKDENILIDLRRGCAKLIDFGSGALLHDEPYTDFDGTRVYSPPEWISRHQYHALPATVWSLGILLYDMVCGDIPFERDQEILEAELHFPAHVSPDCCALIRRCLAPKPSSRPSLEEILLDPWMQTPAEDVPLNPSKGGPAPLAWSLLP
# testSummary: Pim 2 AlphaScreen assay (high ATP)
# Assay type: biochemical
# runParameters: read-out: Pim2 IC50
# Lookup of reported log10(IC50) keyed by entry
Friendly reminder: values = log10 of IC50, unit µM.

The following compounds have reported results that may help.
compound: CC(C)(C)[C@H]1O[C@@H](c2ccncc2NC(=O)c2ccc(F)c(-c3c(F)cccc3F)n2)C[C@@H](N)[C@@H]1O
measurementType: log10(IC50)
quantitativeResult: -2.77
//
compound: C[C@]1(O)[C@H](N)C[C@H](c2ccncc2NC(=O)c2ccc(F)c(-c3c(F)cccc3F)n2)O[C@@H]1C1CC1
measurementType: log10(IC50)
quantitativeResult: -2.21
//
compound: CC(C)C1OC(c2ccncc2NC(=O)c2nc(-c3c(F)cccc3F)ncc2N)C[C@H](N)[C@H]1O (stereo in doubt)
measurementType: log10(IC50)
quantitativeResult: -0.18
//
compound: C[C@H]1O[C@@H](c2ccncc2NC(=O)c2ccc(F)c(-c3ccc(N)nc3F)n2)C[C@@H](N)[C@]1(C)O
measurementType: log10(IC50)
quantitativeResult: -1.07
//
compound: C[C@]1(O)[C@@H](N)C[C@H](c2ccncc2NC(=O)c2nc(-c3ccccc3)cnc2N)OC12CC2
measurementType: log10(IC50)
quantitativeResult: -0.27

Data request: Given CC(C)[C@H]1O[C@@H](c2ccncc2NC(=O)c2ccc(F)c(-c3cnc4[nH]ccc4c3)n2)C[C@@H](N)[C@@H]1O , state its recorded log10(IC50).
Data returned: -0.46

Data request: Record: COc1cc(F)c(-c2nc(C(=O)Nc3cnccc3[C@@H]3C[C@H](N)[C@@H](O)[C@H](C4CC4)O3)ccc2F)c(F)c1
Data returned: -0.30

Data request: Record: C[C@H]1O[C@@H](c2ccncc2NC(=O)c2ccc(F)c(-c3ccc(S(C)(=O)=O)cc3)n2)C[C@@H](N)[C@]1(C)O
Data returned: 0.14

====

# testSystem: GSK3β (Homo sapiens, UniProt P49841)
# testSummary: GSK3β ATP depletion assay
# Type: biochemical
# runParameters: read-out: GSK3b IC50
# Lookup of reported log10 IC50 keyed by entry
Friendly reminder: values = log10 of IC50, unit nM.

compound: CC1C(c2ccncc2NC(=O)c2ccc(F)c(-c3c(F)cccc3F)n2)OC(C)[C@H](O)C1O (stereo in doubt) [Example 65]
quantitativeResult: 1.71

compound: O=C(Nc1cnccc1[C@H]1C[C@@H](O)[C@H](O)[C@@H](CO)O1)c1csc(-c2c(F)cccc2F)n1
quantitativeResult: 3.09

compound: O=C(Nc1cnccc1[C@@H]1C[C@H](O)[C@]2(O)CCC[C@@H]2O1)c1ccc(F)c(-c2c(F)cccc2F)n1
quantitativeResult: 2.86

Now for a further compound.
Data request: Given CC1C(c2ccncc2NC(=O)c2ccc(F)c(-c3c(F)cccc3F)n2)OC(C)[C@@H](O)C1O (stereo in doubt) [Example 67] , state its recorded log10 IC50.
Data returned: 2.99

====

# testSystem: PIM1 (Homo sapiens, UniProt P11309)
# Sequence (P11309 whole entry): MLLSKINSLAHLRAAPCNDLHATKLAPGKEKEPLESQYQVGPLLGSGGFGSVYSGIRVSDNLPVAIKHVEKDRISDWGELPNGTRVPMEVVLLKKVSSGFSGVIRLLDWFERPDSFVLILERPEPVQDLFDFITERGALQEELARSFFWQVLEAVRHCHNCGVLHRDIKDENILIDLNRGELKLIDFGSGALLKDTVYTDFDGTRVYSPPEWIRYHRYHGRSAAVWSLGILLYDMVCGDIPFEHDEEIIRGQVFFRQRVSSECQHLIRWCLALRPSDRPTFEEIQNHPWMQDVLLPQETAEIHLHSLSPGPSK
# testSummary: KinaseGlo Pim1 ATP depletion assay
# Type: biochemical
# Lookup of reported pIC50 keyed by entry
As a rule, pIC50 stands for the negative log10 of the concentration, concentration in M.

compound: CC[C@@]1(O)[C@H](O)C[C@H](c2ccncc2NC(=O)c2ccc(F)c(-c3c(F)cccc3F)n2)O[C@@H]1C [Example 74]
pIC50: 9.00
//
compound: Nc1cc(F)c(-c2c(F)cccc2F)nc1C(=O)Nc1cnccc1[C@H]1C[C@@H](O)[C@H](O)[C@@H](CCl)O1 [Example 35]
pIC50: 9.00
//
compound: N#CC[C@H]1O[C@@H](c2ccncc2NC(=O)c2ccc(C#N)c(-c3c(F)cccc3F)n2)C[C@@H](O)[C@@H]1O [Example 47]
pIC50: 7.24
//
compound: C[C@@H]1O[C@H](c2ccncc2NC(=O)c2csc(-c3c(F)cccc3F)n2)C[C@H](N)[C@H]1O [Example 113]
pIC50: 8.30

Data request: Given CC[C@]1(O)[C@H](O)C[C@H](c2ccncc2NC(=O)c2nc(-c3ncccc3F)ccc2N)O[C@@H]1C [Example 155] , state its recorded pIC50.
Data returned: 8.40

Data request: Record: C[C@H]1O[C@@H](c2ccncc2NC(=O)c2nc(-c3ccccc3)ncc2N)C[C@@H](O)[C@]1(C)O [Example 32]
Data returned: 8.30

Data request: Record: CC[C@]1(O)[C@H](O)C[C@H](c2ccncc2NC(=O)c2nc(-c3c(F)cccc3F)ncc2N)O[C@@H]1C [Example 16]
Data returned: 9.00
